The reported measurements were obtained from the supplement of paper PMC11865577.

# Test system: G-clamp-N3 (biotin conjugate)
# Assay Protocol: pull-down binding Z-score (relative to library population); higher = stronger binding
# Test Settings: RNA library: Library-1 (pre-miRNA loops + repeats)
// reported pull-down binding Z-score per item
Measured Metric: pull-down binding Z-score

| Item Sequence | Meas Value |
| --- | --- |
| UCCAUGAAAAGAACCCAUGGG [hsa-mir-4471] | -0.734 |
| UAUAACUUGAAGAAUUCAAAUAGUCAUG [hsa-mir-3146] | -0.817 |
| GAGACUUUAAAAGCGUCUC [hsa-mir-3926-1] | 0.184 |
| GAGCUGGAAGGAGUGGGCCUGGCUC [hsa-mir-6847] | 4.26 |
| GAGGGAUGAGUGCACUUCACCUGC [hsa-mir-4435-1_4435-2] | 0.0709 |
| GCUGCCCCUUUGCUCUCUGGGGUAGC [hsa-mir-3614] | 0.721 |

* * *

# Test system: TO-N3-2 (biotin conjugate)
# Assay Protocol: pull-down binding Z-score (relative to library population); higher = stronger binding
# Test Settings: RNA library: Library-2
Lab note: compare pull-down binding Z-score against 0.03. Equal or greater, write Satisfied. Smaller, write Not satisfied.

| Item Sequence | Label Class |
| --- | --- |
| AACCAGUUAACUGGUU [SHAPE_invivo_SARS-CoV-2_Motif_126] | Not satisfied |
| CUCCUUUGAUGGUUGCAUACAUGUUGGAG [IAV_invivo_PB2_1_Motif_8+IAV_invivo_PB2_1_Motif_8] | Not satisfied |
| CCUUUAGUACCUUUCUGGAUAACAAUUGCUUAUAUCAUUUGUAUUUCCACAAAGCAUUUCUAUUGG | Not satisfied |
| CUGUUCAGGACAAUGCCGUUGUACA [hsa-mir-199a-2] | Satisfied |
| AUUGAGAGUUCCUUCUCCUGCUCCUGAU [hsa-mir-6766] | Not satisfied |
| UCCUCCCAGUGGCUGGUGGA [IAV_invivo_PB2_1_Motif_9+IAV_invivo_PB2_1_Motif_9] | Not satisfied |
| GGGAGAUUAAUGGUCCU [IAV_invivo_PB2_1_Motif_25+IAV_invivo_PB2_1_Motif_25] | Satisfied |
| CGGGGCGGACGCAGAGCCGCGUUUAGUCUAUCG [hsa-mir-639] | Satisfied |
| AGCAUGCACUUAAUGUGGGUGUAUGU [hsa-mir-668] | Not satisfied |
| UAGACAAUGGUUUCAUCAUUUCGUCUG [hsa-mir-4427] | Not satisfied |
| CCGGUAAGGACGAUACUUACCUG [U1snRNP5ss-23] | Not satisfied |
| GGAACACUAUAUUAAUCAGGUUUCC [hsa-mir-6509] | Not satisfied |
| GCAACUUGCUGUUGUUGUUUGUAACAGUUUACUCACACCUUUUGCUCGUUGC | Not satisfied |
| UUGUUGUUAUUACU [hsa-mir-378d-1] | Not satisfied |
| AGUCAUAGUCAGUUAGGUGGUUUACAUCUACUGAUUGGACU | Not satisfied |
| GGACCAGGAACUAAUCAGACAAGGAACUGAUUACAAACAUUGGCC [DMSMaPseq_invitro_SARS-CoV-2_Motif_522] | Satisfied |
| CUAUUCAAACAAUUGUUGAGGUUCAACCUCAAUUAGAGAUGGAACUUACACCAGUUGUUCAGACUAUUGAAGUGAAUAGUUUUAG [SHAPE_invivo_SARS-CoV-2_Multi_36_ComplexLevel_1] | Not satisfied |
| AGUAUUUUAAUCAUAGAUUGUAUUUAGUUAGUUUUUAAUACU [hsa-mir-4637] | Not satisfied |
| UUUGCCAUUACUUUCAGUAGCAAA [hsa-mir-548c] | Not satisfied |
| UCAGCCCCAUAUGUAUCUGAAGGCUGA [hsa-mir-5694] | Satisfied |
| CUGCUGCUGCUGCUGCUGCUGCUGCUGCUGCUGCUGCUGCUGCUGCUG [r(CUG)16] | Satisfied |
| UAGAGAAAACAACAGAGUUGUUAUUUCUAGUGAUGUUCUUGUUAACAACUAAACGAACAAUGUUUGUUUUUCUUGUUUUAUUGCCACUAGUCUCUA [SHAPE_invitro_SARS-CoV-2_Multi_58_ComplexLevel_1] | Not satisfied |
| GCCAGCACAUGGUCCAGCCAAAAACAUGGAGUAUGAUGCUGUUGC [IAV_invivo_PB1_2_Motif_34+IAV_invivo_PB1_2_Motif_34] | Satisfied |
| UGUGGUGGGUGGUGGCCUGCGGUGAGCAGGGCCCUCA [hsa-mir-1228] | Satisfied |
| GCAAGGUUGUUGGUGAUAUGGCUUCCUCUC [hsa-mir-4685] | Satisfied |
| AGUUUACGCCCUGACACACGUUAUGUGCUCAUGGAUGGCU | Not satisfied |
| ACUCCCAGAACUCAUUAAGUUGGUAGU [hsa-mir-1278] | Not satisfied |
| GACAUUUUAUCUUACUAAUGAUGUUUCUUUUUUAGCACAUAUUCAGUGGAUGGUUAUGUU [DMSMaPseq_invitro_SARS-CoV-2_Motif_175] | Not satisfied |
| GUCCCAAUACAUGUGGGCC [hsa-mir-586] | Not satisfied |
| GGUUUCCUUCGGGGCAGGUGGGGACUGCUCCUUUGGGAGGAAGGAGGAGGCC [hsa-mir-4453] | Satisfied |
| GGUUUUUACCAUUAAAACC [hsa-mir-548aw] | Not satisfied |
| CACUACAAGAAGAAUGUAGUUGUG [hsa-mir-19a] | Satisfied |
| GGAGGCAUGAAUGAGCCAUCUUUCCAAUGCCUUUC [hsa-mir-4743] | Satisfied |
| UGGACUGUGUACCAAUUUCCA [hsa-mir-194-1] | Not satisfied |
| GGGGCUCUU [hsa-mir-4634] | Satisfied |
| AAGGGAGGGGCGGGUCGGGAA [G4_2A2_NRAS] | Satisfied |
| CCUACUGAUGG [IAV_invivo_PA_3_Motif_12+IAV_invivo_PA_3_Motif_12] | Not satisfied |
